System: 786-0 renal
Assay: NCI-60 one-dose screen, 48 h (100 = growth as untreated, 0 = no growth, -100 = all killed)
Details: 10 µM unless noted
Compounds without any hit were thinned out: in the full panel of roughly 83,000, 20% have a hit.
Label MET when growth is at or above 80%; otherwise label NOT MET.

CC12CCC3C4(C)COC(c5ccco5)OC4CCC3(C)C1CC(C1=CCOC1=O)O2 (stereo not given) = MET
Clc1cc(Cl)cc(-c2ccc(-c3ccc(/C=N/NC4=NCCN4)cc3)s2)c1 = NOT MET
CCCCCCCCCCCC(=O)NCCC[N+](C)(C)CC(=O)[O-] = MET
COc1cc(Cn2cc3c(c2)-c2oncc2CC3)cc(OC)c1OC = NOT MET
COc1cc(C2C3=C(COC3=O)Nc3cc4c(cc32)CCC4)cc2c1OCO2 (stereo not given) = NOT MET
Nc1ccc(C(=O)CSc2nc3ccccc3[nH]2)cc1 = MET

Qu. Does "CCCCCCCCCCCCCCCCNC(=O)OC(C)C" have a reported growth of at least 80%?
Ans. MET

Qu. Has "C=C(C)[C@@H]1CC[C@]2(C(=O)O)CC[C@]3(C)[C@H](CC[C@@H]4[C@@]5(C)C[C@@H](CC#Cc6ccc(C(F)(F)F)cc6)[C@H](O)C(C)(C)[C@@H]5CC[C@]43C)[C@@H]12" a recorded growth greater than or equal to 80%?
Ans. NOT MET

Qu. In plain terms: is recorded growth at least 80% for "Nc1cccc(-c2nc3sccn3c2-c2ccnc(NCCCNS(=O)(=O)c3cccc4ccccc34)n2)c1" ?
Ans. NOT MET

Qu. Please indicate if the recorded growth for "O=C(N/N=C/C=C\c1ccccc1)C(=O)N/N=C/C=C/c1ccccc1" meets or exceeds 80%.
Ans. MET

----------
Test system: LOX IMVI melanoma
Assay: NCI-60 one-dose screen, 48 h
Conditions: 10 µM unless noted
This is part of a sample that, as a whole, favours compounds with a hit. Of some 83,000 tested, about 20% had one in any assay. Calls of active or inactive are those of the source. How the source made its calls: active means growth percent below 10; inactive means the rest.
Valid outcomes are listed here; reply with one: active, inactive

NC(=N\N=C/c1ccc(O)cc1)/C(N)=N\N=C/c1ccc(O)cc1 = inactive
C=C1C(=O)O[C@H]2[C@H]1CC/C(Cn1cc(-c3cccc(Cl)c3)nn1)=C\CC[C@@]1(C)O[C@@H]21 = active
Cc1ccc(S(=O)(=O)NC(=O)n2cc(-c3ccncc3)c(-c3ccc(Cl)c(O)c3)n2)cc1 = inactive

Qu. # lookup: test call for "Fc1ccc(-c2nc(-c3nc4ncccc4[nH]3)cc3c2[nH]c2ccccc23)cc1F"
Ans. inactive

Qu. How did this test come out for "O=c1cc/c(=N\Nc2ccccc2)c(=O)/c1=N/Nc1ccccc1" ?
Ans. inactive

Qu. # fetch the recorded call for "Cc1cc(N/N=C/c2nc(-c3ccccc3)oc2C)c2cc(Cl)ccc2n1" here
Ans. active

Qu. Would you mind telling me which call this test gave "C/C(=N/NC(=S)Nc1ccccc1)c1nc2ccc(Cl)cc2[nH]1" ?
Ans. active

Qu. // outcome(item) with item = "Cc1ccc(Nc2nnc(-c3ccc(Cl)cc3)o2)c(C)c1"
Ans. inactive

----------
System: SR leukemia
Test: NCI-60 one-dose screen, 48 h
Conditions: 10 µM unless noted
Protocol: Growth inhibition of the SR human tumor cell line is measured as a screen for anti-cancer activity. Cells are grown in 96 well plates and exposed to the test compound for 48 hours. Compounds are tested at a single concentration, which is 10^-5 M for most compounds. The reported endpoint is percent growth (GI% or GIPRCNT), where numbers from 0 - 100% represent growth inhibition, and numbers from -100% - 0 represent cell death. For example, a value of 40 represents 60% growth inhibition. […]
The panel holds about 83,000 compounds, 20% with a hit somewhere; the sample as a whole holds those more often. Active and inactive are the calls of the source. Rule for the calls: active = growth percent below 10; inactive = the rest.
Permitted responses: Yes = active, No = inactive

COc1cc2c(=O)n(C3CCCCCC3)c3c4cc[nH]c4ncc3c2cc1OC = No
COc1ccc(Nc2ncccc2C(=O)NCc2cn(Cc3cccc(Oc4ccccc4)c3)nn2)c(OC)c1 = No
O=S(=O)(NCCCNc1nccc(-n2ccc3cccnc32)n1)c1cccc(C(F)(F)F)c1 = No
COc1ccc(S(=O)(=O)Nc2cc(/C=C\c3cc(OC)c(OC)c(OC)c3)cc(OC)c2OC)cc1 = Yes

Shifting focus to the compound that follows.
Qu. GET /call?item= "O=C(Nc1ccncc1)C(=O)c1cn(S(=O)(=O)c2ccc(Oc3ccccc3)cc2)c2ccccc12" returns the recorded outcome of this test.
Ans. No

----------
Please respond with reported growth for every item in the list.
System: NCI-H522 lung
Experiment: NCI-60 one-dose screen, 48 h (100 = growth as untreated, 0 = no growth, -100 = all killed)
Conditions: 10 µM unless noted
About 83,000 compounds went through this panel and 20% of them were active in at least one assay; those are over-represented in the sample as a whole.
Answers are plain numbers, in %.

Here is how some molecules turned out for growth.
CN1C(=O)N(C)C2C1NN=c1s/c(=C\c3cccnc3)c(=O)n12 (stereo not given) = 72.2
O=C(Oc1ccccc1[N+](=O)[O-])C1CCCN1C(=O)OCc1ccccc1 (stereo not given) = 101
O=S(=O)(NCCNc1nccc(-c2c(-c3cccc(O)c3)nc3sccn23)n1)c1ccc(F)cc1 = 64.4
Cc1ccc(S(=O)(=O)NCCNc2cc(-c3cn(C(C)(C)C)nc3-c3cccc(O)c3)ccn2)cc1 = 68.1

// moving on: another record for growth
Qu. Any idea what growth came out for "COc1ccc(C2=Nn3c(nnc3-n3nc(C)cc3C)SC2)cc1" on NCI-H522 lung?
Ans. -9.16

----------
System: SK-MEL-5 melanoma
Assay: NCI-60 one-dose screen, 48 h (100 = growth as untreated, 0 = no growth, -100 = all killed)
Settings: 10 µM unless noted
This is part of a sample that, as a whole, favours compounds with a hit. Of some 83,000 tested, about 20% had one in any assay. Calls of active or inactive are those of the source. How the source made its calls: active means growth percent below 10; inactive means the rest.
REPORTED PROPERTY: growth

As a guide, the following entries are already answered.
CC(C)c1ccc2occ(C=C3C(=O)NC(=O)NC3=O)c(=O)c2c1 = 97.3% (inactive)
COc1ccc(-c2cnoc2-c2ccc(OC)cc2O)cc1 = 15.8% (inactive)
Cc1[nH]c2ccc(F)cc2c1CCNC(=O)C1CCN(C(=O)c2ccccc2)C1 (stereo not given) = 82.2% [25 µM] (inactive)
O=C(Nc1ccc(NCCN2CCOCC2)nc1)c1ccc([N+](=O)[O-])cc1 = 98.7% (inactive)
O=C(O)c1nc(-c2ccccc2)oc1N1CCOCC1 = 105% (inactive)
C=C1CCC2C3(C)COC(C)(C)OC3CCC2(C)C1C/C=C1/C(=O)OCC1Oc1ccccc1OC (stereo not given) = 95.4% (inactive)
O=S(=O)(NCCNc1nccc(-c2c(-c3ccc(O)cc3)nc3sccn23)n1)c1cccc2ccccc12 = 102% (inactive)
COc1ccc(-c2ccc(-c3ccc(C(=N)N)cn3)s2)cc1OC = 88.7% (inactive)
COc1cc(NC(=O)SC2=NCCS2)cc(OC)c1 = 98.1% (inactive)

Shifting focus to the compound that follows.
Qu. Using the record for "COc1ccc(-c2c(N)n[nH]c2-c2cc(OC)c(OC)c(OC)c2)cc1" , report its growth.
Ans. 0.844% (active)

----------
System: 786-0 renal
Assay: NCI-60 one-dose screen, 48 h
Settings: 10 µM unless noted
This is part of a sample that, as a whole, favours compounds with a hit. Of some 83,000 tested, about 20% had one in any assay. The source made the active and inactive calls. The calls were made as follows: active = growth percent below 10; inactive = the rest.
Please reply with one of these outcomes: true for active, false for inactive

COc1cc2c(cc1OCCCCCn1c3ccccc3c3ccccc31)N=C[C@@H]1CCCN1C2=O = true

Qu. How was "CC(C)OC(=O)N1CCOCC1" classified in this test?
Ans. false

Qu. // return assay outcome for "O=C1Nc2ccc3c(c2/C1=C\c1cc2c(cc1Br)OCO2)OCO3"
Ans. false

----------
Field: growth. Provide a value for each of the molecules that follow.
Test system: RXF 393 renal
Assay: NCI-60 one-dose screen, 48 h (100 = growth as untreated, 0 = no growth, -100 = all killed)
Details: 10 µM unless noted
About 83,000 compounds went through this panel and 20% of them were active in at least one assay; those are over-represented in the sample as a whole.
One number for each entry, in %.

Below: 3 molecules and their reported growth.
Cc1ccc(NS(=O)(=O)c2cc(C)ccc2C)cc1 = 47.6
CC(C)CSc1nc(NN)c(C#N)c(-c2ccc(F)cc2)n1 = 79.3
CCCCN(CCCC)c1ccc(C(=N)c2ccc(N(CCCC)CCCC)cc2)cc1 = -94.8

Parameter requested: growth. Apply to each item below.
1. CCN(CC)CCC(CNc1ccnc2cc(Cl)ccc12)c1ccc(Cl)cc1 (stereo unspecified)
2. C/C=C(\C)C(C(=O)NC1CCCCC1)N(C(=O)C1CCc2cc(F)ccc2O1)c1ccc(Cl)cc1 (stereo unspecified)

Ans.
1. -90.4
2. 109

Return reported growth values for all items listed beneath this line.
1. COc1ccc(Nc2[nH]n3c(=O)cc(C)nc3c2C(N)=O)c(OC)c1
2. NC1N=C(SCC(=O)N2CCN(c3cc4c(cc3F)c(=O)c(C(=O)O)cn4C3CC3)CC2)NC(=O)/C1=C/c1ccc(Cl)cc1 (stereo unspecified)
3. COc1ccc(C(=O)N2NC(=O)/C(=C/c3ccc(Br)cc3)N=C2c2ccccc2)cc1
4. COc1ccc(S(=O)(=O)Nc2cc(/C=C\c3cc(OC)c(OC)c(OC)c3)cc(OC)c2OC)cc1
5. Clc1cc(Cl)cc(-c2ccc(-c3ccc(/C=N/NC4=NCCN4)cc3)s2)c1
6. COc1ccc(-c2nc(SCCC(C)C)nc(Nc3ccc(F)c(Cl)c3)c2C#N)cc1
7. CCCOC(=O)n1cccc1
8. O=c1[nH]c(Nc2ccc(S(=O)(=O)O)cc2)nc2nc(Nc3ccc(NC(=S)Nc4ccccc4)cc3)nc(-c3ccc(O)cc3O)c12

Ans.
1. 98.1
2. 110
3. 99.9
4. 40.9
5. 60.6
6. 101
7. 102
8. 115

Dear colleague, could you send me growth for each of the items below? Thanks.
1. CC(C)(C)NCCC(O)c1cc2c(Cl)cc(Cl)cc2c2cc(C(F)(F)F)ccc12 (stereo unspecified)
2. COc1ccc(-c2nc(N3CCCC3=O)sc2Br)cc1OC
3. COc1cc(/C(C#N)=C/c2ccc3c(c2OC)OCO3)cc2c1OCO2
4. Cc1ccc(-c2nc(C#N)c(S(=O)(=O)n3nc(-c4ccccc4)cc3N)o2)cc1
5. CCN1CCN(c2nc(NNC(=O)c3ccccc3)nc(N3CCN(C(c4ccccc4)c4ccccc4)CC3)n2)CC1
6. COc1ccc(C2=CC(c3cc(OC)c(OC)c(OC)c3)NC(=O)N2)cc1OC (stereo unspecified)
7. Cc1ccc(N2CCN(C(C)C(N)=O)CC2)cc1 (stereo unspecified)
8. Cc1ccc2ccccc2c1C[n+]1ccccc1

Ans.
-95.9
89.9
-14.3
85
59.7
0.616
111
105
